- TARGET SYSTEM: AMPK
- ASSAY TEXT: AMPK activation, enzyme-linked immunosorbent assay
- Type: biochemical
- RUN PARAMETERS: Table 13, compounds of Table 6
pEC50: −log10 of the molar value.
So I've got a bunch of compounds here, and I need their pEC50 values.

Ask: Can you look up the measured pEC50 of `N#Cc1ccc(CN2CCC(NC(=O)c3cc4cc(C(=O)NC5CCN(Cc6ccc(OC(F)(F)F)cc6)CC5)ccc4o3)CC2)cc1` for me?
Result: 6.00 to 7.00

Ask: Can you look up the measured pEC50 of `CS(=O)(=O)c1ccc(CN2CCN(C(=O)c3ccc4oc(C(=O)NC5CCN(Cc6ccc(C(F)(F)F)cc6)CC5)cc4c3)CC2)cc1` for me?
Result: > 7.00

Ask: Can you look up the measured pEC50 of `N#Cc1ccc(CN2CCC(NC(=O)c3cc4cc(NC(=O)C5CCN(c6ccc(C#N)cc6)CC5)ccc4o3)CC2)cc1` for me?
Result: > 7.00

Ask: Can you look up the measured pEC50 of `N#Cc1ccc(CN2CCC(NC(=O)c3cc4cc(C(=O)N5CCC(S(=O)(=O)c6ccc(F)cc6)CC5)ccc4o3)CC2)cc1` for me?
Result: 6.00 to 7.00

Ask: Can you look up the measured pEC50 of `COc1ccc(-c2cnn(C3CCN(C(=O)c4ccc5oc(C(=O)NC6CCN(Cc7ccc(C#N)cc7)CC6)cc5c4)CC3)c2)cc1` for me?
Result: > 7.00

Ask: Can you look up the measured pEC50 of `CS(=O)(=O)c1cccc(CN2CCN(C(=O)c3ccc4oc(C(=O)NC5CCN(Cc6cccc(OC(F)(F)F)c6)CC5)cc4c3)CC2)c1` for me?
Result: > 7.00

Ask: Can you look up the measured pEC50 of `COc1ccc(CN2CCC(NC(=O)c3cc4cc(C(=O)N5CCN(Cc6ccc(S(C)(=O)=O)cc6)CC5)ccc4o3)CC2)cc1` for me?
Result: 6.00 to 7.00

Ask: Can you look up the measured pEC50 of `COc1ccc(CN2CCC(NC(=O)c3cc4cc(C(=O)N5CCN(Cc6ccc(Br)c(S(C)(=O)=O)c6)CC5)ccc4o3)CC2)cc1F` for me?
Result: > 7.00

Ask: Can you look up the measured pEC50 of `CS(=O)(=O)c1ccc(CN2CCN(C(=O)c3ccc4oc(C(=O)NC5CCN(Cc6cccc(OC(F)(F)C(F)F)c6)CC5)cc4c3)CC2)cc1` for me?
Result: > 7.00

Ask: Can you look up the measured pEC50 of `CS(=O)(=O)c1ccc(CN2CCN(C(=O)c3ccc4oc(C(=O)NC5CCN(Cc6ccc(S(=O)(=O)N7CCCC7)cc6)CC5)cc4c3)CC2)cc1` for me?
Result: 5.00 to 6.00

Ask: Can you look up the measured pEC50 of `COc1cc(CN2CCC(NC(=O)c3cc4cc(C(=O)N5CCN(Cc6ccc(S(C)(=O)=O)cc6)CC5)ccc4o3)CC2)ccc1F` for me?
Result: 6.00 to 7.00

Ask: Can you look up the measured pEC50 of `N#Cc1ccc(CN2CCC(NC(=O)c3cc4cc(C(=O)N5CCN(c6ccc(Cl)cc6Cl)CC5)ccc4o3)CC2)cc1` for me?
Result: > 7.00

Ask: Can you look up the measured pEC50 of `COc1ccc(CN2CCC(NC(=O)c3cc4cc(C(=O)N5CCN(Cc6ccc(C(F)(F)F)cc6)CC5)ccc4o3)CC2)cc1F` for me?
Result: > 7.00

Ask: Can you look up the measured pEC50 of `Cc1cc(CN2CCN(C(=O)c3ccc4oc(C(=O)NC5CCN(Cc6ccc(C#N)cc6)CC5)cc4c3)CC2)ccc1S(C)(=O)=O` for me?
Result: > 7.00

Ask: Can you look up the measured pEC50 of `N#Cc1ccc(CN2CCC(NC(=O)c3cc4cc(C(=O)N5CCN(c6ccc(C#N)cc6)CC5)ccc4o3)CC2)cc1` for me?
Result: > 7.00

Ask: Can you look up the measured pEC50 of `N#Cc1ccc(CN2CCC(NC(=O)c3cc4cc(NC(=O)C5CCN(Cc6cnn(-c7ccc(C#N)cc7)c6)CC5)ccc4o3)CC2)cc1` for me?
Result: 5.00 to 6.00

Ask: Can you look up the measured pEC50 of `CS(=O)(=O)c1ccc(CN2CCN(C(=O)c3ccc4oc(C(=O)NC5CCN(Cc6ccc(C#N)cc6)CC5)cc4c3)CC2)cc1OC(F)(F)F` for me?
Result: 6.00 to 7.00

Ask: Can you look up the measured pEC50 of `N#Cc1ccc(CN2CCC(NC(=O)c3cc4cc(NC(=O)Cc5ccc(C(F)(F)F)cc5)ccc4o3)CC2)cc1` for me?
Result: 6.00 to 7.00
